These entries and their values trace back to paper PMC10165274.

Biological target: T1, Proliferating cell nuclear antigen C148S variant (human, UniProt P12004 1-261, C148S)
T1 construct: PCNA, human, patient-derived variant p.Cys148Ser; untagged, made by site-directed mutagenesis of PCNA-WT in pET3c; Disease-associated natural allele (PARD); Homotrimeric ring; also called PCNA-C148S; C148S-PCNA; source: E. coli BLR-DE3, purified (S and Q HiTrap columns, Sephacryl-200 gel filtration)
T1 sequence (P12004 whole entry C148S): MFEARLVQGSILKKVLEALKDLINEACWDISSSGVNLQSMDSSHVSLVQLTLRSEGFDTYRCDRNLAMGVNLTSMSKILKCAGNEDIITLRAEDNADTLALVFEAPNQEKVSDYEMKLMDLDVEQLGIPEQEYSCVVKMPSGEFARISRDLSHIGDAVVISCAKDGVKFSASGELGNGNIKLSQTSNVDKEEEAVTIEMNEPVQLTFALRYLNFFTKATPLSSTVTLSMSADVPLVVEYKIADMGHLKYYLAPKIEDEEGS
Assay: ITC; peptide (FEN1 800 uM, pol δ p66 550 uM, RNaseH2B 750 uM) with 33 to 38 uM individual PCNA (not trimeric rings); 25 °C
Conditions: both partners purified
pKd: −log10 of the molar value.
recordedMetric: pKd

{"binder": "STQGRLDDFFKVTGSL (PIP-box peptide of Flap endonuclease 1 (FEN1); free C-terminus (-OH); source: synthetic peptide (21st Century Biochemicals)) [FEN1 PIP-box peptide]", "readoutNumber": 4.96}
{"binder": "KANRQVSITGFFQRK (PIP-box peptide of the p66 subunit of DNA polymerase delta; also called pol δ p66; pol δ; source: synthetic peptide (21st Century Biochemicals)) [DNA polymerase delta p66 PIP-box peptide]", "readoutNumber": 5.55}
{"binder": "DKSGMKSIDTFFGVKNKKKIGKV (PIP-box peptide of RNaseH2B; free C-terminus (-OH); printed with a blank after SID; source: synthetic peptide (21st Century Biochemicals)) [RNaseH2B PIP-box peptide]", "readoutNumber": 5.11}
